Experiment: Formation of 1,5-cz-[Ln(Lig)] from Lig and Ln^III ions (metal dependent click-zip), MOPS/NaOH buffer pH 7.0, analytical HPLC (Charts 1, 2)
Details: Er^III; after 1 hour at 80° C.; MOPS/NaOH buffer pH 7.0
Entries whose conversion to 1,5-cz-[Ln(Lig)], Er^III is below 6% take 1; entries at or above 6% take 0.

CC(C)(N)C#Cc1cccc(CN2CCN(CC(=O)O)CCN(Cc3cc(-c4ccccc4)cc(CN=[N+]=[N-])n3)CCN(CC(=O)O)CC2)n1 ... 0
C#Cc1cccc(CN2CCN(CC(=O)O)CCN(Cc3cc(C(F)(F)F)cc(CN=[N+]=[N-])n3)CCN(CC(=O)O)CC2)n1 ... 0

**Query** Take the molecule [N-]=[N+]=NCc1cc(-c2ccccc2)cc(CN2CCN(CC(=O)O)CCN(Cc3cccc(C#CCN)n3)CCN(CC(=O)O)CC2)n1 and say whether its conversion to 1,5-cz-[Ln(Lig)], Er^III is less than 6%.
**Result** 0

**Query** Take the molecule C#Cc1cccc(CN2CCN(CCC(=O)O)CCN(Cc3cccc(CN=[N+]=[N-])n3)CCN(CCC(=O)O)CC2)n1 and say whether its conversion to 1,5-cz-[Ln(Lig)], Er^III is less than 6%.
**Result** 1

**Query** Take the molecule [N-]=[N+]=NCc1cccc(CN2CCN(CC(=O)O)CCN(Cc3cccc(C#CC45CC6CC(CC(C6)C4)C5)n3)CCN(CC(=O)O)CC2)n1 and say whether its conversion to 1,5-cz-[Ln(Lig)], Er^III is less than 6%.
**Result** 1

**Query** Take the molecule C#Cc1cccc(CN2CCN(CC(=O)O)CCN(Cc3cccc(CN=[N+]=[N-])n3)CCN(CP(=O)(O)O)CC2)n1 and say whether its conversion to 1,5-cz-[Ln(Lig)], Er^III is less than 6%.
**Result** 0

**Query** Take the molecule C#Cc1cccc(CN2CCN(CP(=O)(O)c3ccccc3)CCN(Cc3cccc(CN=[N+]=[N-])n3)CCN(CP(=O)(O)c3ccccc3)CC2)n1 and say whether its conversion to 1,5-cz-[Ln(Lig)], Er^III is less than 6%.
**Result** 1

**Query** Take the molecule [N-]=[N+]=NCc1cccc(CN2CCN(CC(=O)O)CCN(Cc3cccc(C#Cc4ccccc4)n3)CCN(CC(=O)O)CC2)n1 and say whether its conversion to 1,5-cz-[Ln(Lig)], Er^III is less than 6%.
**Result** 1

**Query** Take the molecule C#Cc1cccc(CN2CCN(CC(=O)NCC(=O)O)CCN(Cc3cc(-c4ccccc4)cc(CN=[N+]=[N-])n3)CCN(CC(=O)NCC(=O)O)CC2)n1 and say whether its conversion to 1,5-cz-[Ln(Lig)], Er^III is less than 6%.
**Result** 0

**Query** Take the molecule C#Cc1cccc(CN2CCN(CC(=O)O)CCN(Cc3cc(N(C)C)cc(CN=[N+]=[N-])n3)CCN(CC(=O)O)CC2)n1 and say whether its conversion to 1,5-cz-[Ln(Lig)], Er^III is less than 6%.
**Result** 0

**Query** Take the molecule C#Cc1cccc(CN2CCN(CP(=O)(O)OCC)CCN(Cc3cccc(CN=[N+]=[N-])n3)CCN(CP(=O)(O)OCC)CC2)n1 and say whether its conversion to 1,5-cz-[Ln(Lig)], Er^III is less than 6%.
**Result** 0

**Query** Take the molecule CC(C)(C#Cc1cccc(CN2CCN(CC(=O)O)CCN(Cc3cccc(CN=[N+]=[N-])n3)CCN(CC(=O)O)CC2)n1)NC(=O)OC(C)(C)C and say whether its conversion to 1,5-cz-[Ln(Lig)], Er^III is less than 6%.
**Result** 1

**Query** Take the molecule [N-]=[N+]=NCc1cccc(CN2CCN(CC(=O)O)CCN(Cc3cccc(C#CC4CCNCC4)n3)CCN(CC(=O)O)CC2)n1 and say whether its conversion to 1,5-cz-[Ln(Lig)], Er^III is less than 6%.
**Result** 1

**Query** Take the molecule C#Cc1cccc(CN2CCN(CC(=O)O)CCN(Cc3cc(-c4ccc(C(=O)O)cc4)cc(CN=[N+]=[N-])n3)CCN(CC(=O)O)CC2)n1 and say whether its conversion to 1,5-cz-[Ln(Lig)], Er^III is less than 6%.
**Result** 0

**Query** Take the molecule [N-]=[N+]=NCc1cccc(CN2CCN(CC(=O)O)CCN(Cc3cccc(C#CC4CC4)n3)CCN(CC(=O)O)CC2)n1 and say whether its conversion to 1,5-cz-[Ln(Lig)], Er^III is less than 6%.
**Result** 1

**Query** Take the molecule CC(C)(C)C#Cc1cccc(CN2CCN(CC(=O)O)CCN(Cc3cccc(CN=[N+]=[N-])n3)CCN(CC(=O)O)CC2)n1 and say whether its conversion to 1,5-cz-[Ln(Lig)], Er^III is less than 6%.
**Result** 1

----------
Test: Formation of 1,5-cz-[Ln(Lig)] from Lig and Ln^III ions (metal dependent click-zip), MOPS/NaOH buffer pH 7.0, analytical HPLC (Charts 1, 2)
Details: Tm^III; after 1 week at 80° C.; MOPS/NaOH buffer pH 7.0
outcomeMeasure: conversion to 1,5-cz-[Ln(Lig)], Tm^III (%)
Field format: number, assumed %, no unit text.

See these solved cases before continuing.
CC(C)(C)C#Cc1cccc(CN2CCN(CC(=O)O)CCN(Cc3cccc(CN=[N+]=[N-])n3)CCN(CC(=O)O)CC2)n1 [TD959] ... 97
C#Cc1cccc(CN2CCN(CP(=O)(O)OCC)CCN(Cc3cccc(CN=[N+]=[N-])n3)CCN(CP(=O)(O)OCC)CC2)n1 [TD582] ... 68
[N-]=[N+]=NCc1cccc(CN2CCN(CC(=O)O)CCN(Cc3cccc(C#CI)n3)CCN(CC(=O)O)CC2)n1 [TD1204] ... 62
[N-]=[N+]=NCc1cc(-c2ccccc2)cc(CN2CCN(CC(=O)O)CCN(Cc3cccc(C#CCN)n3)CCN(CC(=O)O)CC2)n1 [TD722] ... 96
CC(C)(N)C#Cc1cccc(CN2CCN(CC(=O)O)CCN(Cc3cc(-c4ccccc4)cc(CN=[N+]=[N-])n3)CCN(CC(=O)O)CC2)n1 [TD1054] ... 94
C#Cc1cccc(CN2CCN(CC(=O)O)CCN(Cc3cc(N(C)C)cc(CN=[N+]=[N-])n3)CCN(CC(=O)O)CC2)n1 [TD1176] ... 96

Attention now turns to another entry.
Reported conversion to 1,5-cz-[Ln(Lig)], Tm^III of [N-]=[N+]=NCc1cccc(CN2CCN(CC(=O)O)CCN(Cc3cccc(C#CC4CCNCC4)n3)CCN(CC(=O)O)CC2)n1 [TD1127] : 93

----------
Experiment: Formation of 1,5-cz-[M(Lig)] from Lig and M^II ions (metal dependent click-zip) (Charts 6, 7)
Type: physicochemical
Conditions: 1 hour at 80° C.; MOPS/NaOH buffer pH 7.0; TD728 in 50% i-PrOH
outcomeMeasure: conversion to 1,5-cz-[M(Lig)], Ca^II (%)
Field format: number, assumed %, no unit text.

See these solved cases before continuing.
C#Cc1cccc(CN2CCN(CC(=O)O)CCN(Cc3cc(-c4ccccc4)cc(CN=[N+]=[N-])n3)CCN(CC(=O)O)CC2)n1 [TD647] ... 16
C#Cc1cccc(CN2CCN(CC(=O)O)CCN(Cc3cccc(CN=[N+]=[N-])n3)CCN(CP(=O)(O)O)CC2)n1 [TD714] ... 0
CC(C)[Si](C#Cc1cccc(CN2CCN(CC(=O)O)CCN(Cc3cccc(CN=[N+]=[N-])n3)CCN(CC(=O)O)CC2)n1)(C(C)C)C(C)C [TD728] ... 0
CC(C)(C)C#Cc1cccc(CN2CCN(CC(=O)O)CCN(Cc3cccc(CN=[N+]=[N-])n3)CCN(CC(=O)O)CC2)n1 [TD959] ... 1
C#Cc1cccc(CN2CCN(CP(=O)(O)c3ccccc3)CCN(Cc3cccc(CN=[N+]=[N-])n3)CCN(CP(=O)(O)c3ccccc3)CC2)n1 [TD921] ... 0

Reported conversion to 1,5-cz-[M(Lig)], Ca^II of C#Cc1cccc(CN2CCN(CC(=O)O)CCN(Cc3cc(Cl)cc(CN=[N+]=[N-])n3)CCN(CC(=O)O)CC2)n1 [TD764] : 16

----------
Assay: Dissociation of chelates in aq. 6.0M HCl at 80° C. (acid decomplexation kinetic inertness) (Chart 17)
Format: physicochemical
Conditions: 1 month
outcomeMeasure: fraction of intact chelate (%)
Field format: number, assumed %, no unit text.

O=C1C[N@@]2CC[N@]3CC[N@@](CC[N@](CC2)Cc2cccc(n2)-c2cnnn2Cc2cc(-c4ccccc4)cc(n2)C3)CC(=O)[O][Gd][O]1 [TD527] ... 0
O=C1C[N@@]2CC[N@]3CC[N@@](CC[N@](CC2)Cc2cccc(n2)-c2cnnn2Cc2cc(-c4ccccc4)cc(n2)C3)CC(=O)[O][Y][O]1 [TD649] ... 0
O=C1C[N@@]2CC[N@]3CC[N@@](CC[N@](CC2)Cc2cccc(n2)-c2cnnn2Cc2cc(-c4ccccc4)cc(n2)C3)CC(=O)[O][Eu][O]1 [TD599] ... 0

Reported fraction of intact chelate of O=C1C[N@@]2CC[N@]3CC[N@@](CC[N@](CC2)Cc2cccc(n2)-c2cnnn2Cc2cc(-c4ccccc4)cc(n2)C3)CC(=O)[O][Cd][O]1 [TD880] : 0

Reported fraction of intact chelate of O=C1C[N@@]2CC[N@]3CC[N@@](CC[N@](CC2)Cc2cccc(n2)-c2cnnn2Cc2cc(-c4ccc(C(=O)O)cc4)cc(n2)C3)CC(=O)[O][Lu][O]1 [TD748] : 97

Reported fraction of intact chelate of O=C1C[N@@]2CC[N@]3CC[N@@](CC[N@](CC2)Cc2cccc(n2)-c2cn(nn2)Cc2cc(-c4ccccc4)cc(n2)C3)CC(=O)[O][Cd][O]1 [TD900] : 0
